The values you see were collected from the RNAGym collection of RNA variant scans (doi:10.1073/pnas.2313332121).

B1: TPR 5TU (parent)
chain: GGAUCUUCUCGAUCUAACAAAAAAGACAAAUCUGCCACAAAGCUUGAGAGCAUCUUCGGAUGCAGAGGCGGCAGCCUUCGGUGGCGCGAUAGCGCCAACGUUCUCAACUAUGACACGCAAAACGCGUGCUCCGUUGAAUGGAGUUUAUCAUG

Variants of: B1
assayNotes: polymerase ribozyme fitness, log enrichment relative to wild type (log ratio); higher = more active; in vitro selection for triplet polymerase activity
Fewer inactive variants are shown than the library holds.
Provide the reported polymerase ribozyme fitness (log ratio) of each item.
Lab note: record just the number, no unit beside it.

Can you look up the measured polymerase ribozyme fitness (log ratio) of C57A C95A C96U G141A for me?
-4.07

Can you look up the measured polymerase ribozyme fitness (log ratio) of G81A G133C for me?
-3.84

Can you look up the measured polymerase ribozyme fitness (log ratio) of U55G C69A A97U A119U G141A for me?
-1.39

Can you look up the measured polymerase ribozyme fitness (log ratio) of A22U G84U for me?
-1.67

Can you look up the measured polymerase ribozyme fitness (log ratio) of A40C U55G C63U C93U for me?
-0.65
